Provide the reported Ki of each item.
tested_on: full-length ATR (Homo sapiens, UniProt Q13535)
Construct: in the presence of 5 nM full-length ATR
Sequence (Q13535 whole entry): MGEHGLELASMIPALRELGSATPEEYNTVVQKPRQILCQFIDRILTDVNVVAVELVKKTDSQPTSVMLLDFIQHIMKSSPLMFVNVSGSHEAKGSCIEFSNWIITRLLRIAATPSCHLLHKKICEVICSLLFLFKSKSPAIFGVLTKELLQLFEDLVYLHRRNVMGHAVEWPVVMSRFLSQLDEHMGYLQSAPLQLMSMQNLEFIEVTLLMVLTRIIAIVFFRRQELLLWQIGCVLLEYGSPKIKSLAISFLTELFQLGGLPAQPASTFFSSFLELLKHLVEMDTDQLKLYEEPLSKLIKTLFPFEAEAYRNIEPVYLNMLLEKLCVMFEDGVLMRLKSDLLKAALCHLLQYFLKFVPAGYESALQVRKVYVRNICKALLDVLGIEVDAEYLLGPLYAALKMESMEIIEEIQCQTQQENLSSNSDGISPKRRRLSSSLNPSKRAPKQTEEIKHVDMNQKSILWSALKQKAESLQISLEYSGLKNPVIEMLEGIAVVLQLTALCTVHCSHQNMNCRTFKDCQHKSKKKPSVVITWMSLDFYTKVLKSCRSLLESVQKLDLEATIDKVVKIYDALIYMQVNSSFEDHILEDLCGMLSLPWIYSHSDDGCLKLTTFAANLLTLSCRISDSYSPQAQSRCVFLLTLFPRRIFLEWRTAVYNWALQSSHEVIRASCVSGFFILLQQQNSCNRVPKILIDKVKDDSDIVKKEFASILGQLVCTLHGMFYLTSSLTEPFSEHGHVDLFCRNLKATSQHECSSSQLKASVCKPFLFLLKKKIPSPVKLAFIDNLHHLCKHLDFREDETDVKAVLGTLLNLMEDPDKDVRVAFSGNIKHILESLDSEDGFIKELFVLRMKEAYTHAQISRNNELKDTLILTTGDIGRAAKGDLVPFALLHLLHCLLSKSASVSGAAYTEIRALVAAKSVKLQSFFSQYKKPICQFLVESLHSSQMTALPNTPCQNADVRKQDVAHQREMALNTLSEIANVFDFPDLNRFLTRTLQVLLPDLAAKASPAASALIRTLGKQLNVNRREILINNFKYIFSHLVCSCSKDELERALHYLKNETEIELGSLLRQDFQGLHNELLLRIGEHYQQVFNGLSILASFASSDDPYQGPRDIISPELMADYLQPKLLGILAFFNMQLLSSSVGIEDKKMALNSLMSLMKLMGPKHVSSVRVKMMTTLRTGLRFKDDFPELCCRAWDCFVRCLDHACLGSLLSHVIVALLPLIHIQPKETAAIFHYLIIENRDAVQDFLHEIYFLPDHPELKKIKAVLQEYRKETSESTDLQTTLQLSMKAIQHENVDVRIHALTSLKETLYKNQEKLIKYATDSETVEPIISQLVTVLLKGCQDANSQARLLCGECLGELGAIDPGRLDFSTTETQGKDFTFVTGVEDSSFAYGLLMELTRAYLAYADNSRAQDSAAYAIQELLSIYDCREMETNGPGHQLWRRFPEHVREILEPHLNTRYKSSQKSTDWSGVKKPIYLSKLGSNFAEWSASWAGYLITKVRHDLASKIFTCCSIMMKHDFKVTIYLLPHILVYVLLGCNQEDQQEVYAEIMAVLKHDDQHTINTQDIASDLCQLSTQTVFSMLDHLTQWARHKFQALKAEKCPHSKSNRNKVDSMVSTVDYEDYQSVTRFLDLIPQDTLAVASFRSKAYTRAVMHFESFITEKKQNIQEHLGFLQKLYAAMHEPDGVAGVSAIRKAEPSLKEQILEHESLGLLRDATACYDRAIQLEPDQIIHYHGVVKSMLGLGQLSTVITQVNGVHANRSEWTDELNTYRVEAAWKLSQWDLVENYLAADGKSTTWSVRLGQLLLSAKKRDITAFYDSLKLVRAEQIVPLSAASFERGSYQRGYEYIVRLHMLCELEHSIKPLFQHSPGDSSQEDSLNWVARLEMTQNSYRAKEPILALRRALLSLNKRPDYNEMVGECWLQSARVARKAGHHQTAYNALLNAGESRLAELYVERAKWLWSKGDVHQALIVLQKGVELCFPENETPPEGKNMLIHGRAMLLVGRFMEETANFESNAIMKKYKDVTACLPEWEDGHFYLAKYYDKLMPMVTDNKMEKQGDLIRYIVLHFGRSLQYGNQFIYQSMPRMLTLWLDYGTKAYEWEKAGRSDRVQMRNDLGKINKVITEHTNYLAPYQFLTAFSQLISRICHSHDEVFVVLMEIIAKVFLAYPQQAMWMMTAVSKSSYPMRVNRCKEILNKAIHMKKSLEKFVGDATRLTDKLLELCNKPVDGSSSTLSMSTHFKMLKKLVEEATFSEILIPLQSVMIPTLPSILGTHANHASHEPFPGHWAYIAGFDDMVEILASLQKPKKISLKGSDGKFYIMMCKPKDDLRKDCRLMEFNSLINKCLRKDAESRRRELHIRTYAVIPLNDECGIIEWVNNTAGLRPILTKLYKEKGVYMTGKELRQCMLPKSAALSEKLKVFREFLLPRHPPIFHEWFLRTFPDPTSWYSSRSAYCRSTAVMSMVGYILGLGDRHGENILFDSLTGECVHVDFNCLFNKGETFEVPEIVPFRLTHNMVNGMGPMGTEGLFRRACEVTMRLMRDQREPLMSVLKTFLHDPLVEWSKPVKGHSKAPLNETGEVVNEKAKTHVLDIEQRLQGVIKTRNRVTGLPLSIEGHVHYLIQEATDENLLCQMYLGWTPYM
assay_info: ATR Inhibition Assay (radioactive-phosphate incorporation)
assay_conditions: Ki(app); 5 nM full-length ATR, 10 μM ATP, 800 μM target peptide, 25° C.

# input Provide value of Ki for this record tested with full-length ATR (Homo sapiens, UniProt Q13535): COC(=O)N1CC=C(c2cnc(N)c(-c3nnc(-c4ccccc4)o3)n2)CC1
# output < 100 nM

# input CCS(=O)(=O)N1CCC2(CCN(c3cnc(N)c(-c4nnc(-c5ccc(CNC)cc5)o4)n3)C2)C1 (stereo not shown) ?
# output 1000 to 10000 nM

# input And for CCS(=O)(=O)N1CC=C(c2cnc(N)c(-c3nc4cccnc4[nH]3)n2)CC1 ?
# output < 100 nM

# input CCC(=O)N1CC=C(c2cnc(N)c(-c3nnc(-c4ccccc4)o3)n2)CC1 , same question.
# output < 100 nM

* * *

tested_on: full-length ATR (Homo sapiens, UniProt Q13535)
Construct: in the presence of 5 nM full-length ATR
assay_info: ATR Inhibition Assay (radioactive-phosphate incorporation)
assay_conditions: Ki(app); 5 nM full-length ATR, 10 μM ATP, 800 μM target peptide, 25° C.
pKi: −log10 of the molar value.
What pKi was measured for each of the following?

# input pKi of CCS(=O)(=O)N1CCN(c2cnc(N)c(C(=O)Nc3ccccn3)n2)CC1 on full-length ATR (Homo sapiens, UniProt Q13535)?
# output 6.00 to 7.00

# input Now try Nc1ncc(C2=CCN(c3nccs3)CC2)nc1-c1nc2ccccc2[nH]1 .
# output > 7.00

# input Quick one: CNCc1ccc(-c2nnc(-c3nc(N4CCC(O)C4)cnc3N)o2)cc1 (centres unmarked)
# output 6.00 to 7.00

# input And N#CCCN1CCN(c2cnc(N)c(-c3nnc(-c4ccccc4)o3)n2)CC1 ?
# output 5.00 to 6.00

# input Consider next the compound Nc1ncc(C2=CCNCC2)nc1-c1nnc(-c2ccccc2)o1 in the same way.
# output 6.00 to 7.00

# input Another compound to check: Nc1ncc(N2CCN(S(=O)(=O)c3ccsc3)CC2)nc1C(=O)Nc1ccccn1
# output 6.00 to 7.00

# input Repeat for the following compound: Nc1ncc(N2CCN(C(=O)c3c(F)cccc3F)CC2)nc1-c1nc2ccccc2[nH]1
# output 6.00 to 7.00

# input Proceed to CCOC(=O)N1CC=C(c2cnc(N)c(-c3nnc(-c4ccccc4)o3)n2)CC1
# output > 7.00

* * *

tested_on: full-length ATR (Homo sapiens, UniProt Q13535)
Construct: in the presence of 5 nM full-length ATR
assay_info: ATR Inhibition Assay (radioactive-phosphate incorporation)
assay_conditions: Ki(app); 5 nM full-length ATR, 10 μM ATP, 800 μM target peptide, 25° C.
pKi: −log10 of the molar value.
measured_metric: pKi

# input Observed pKi on full-length ATR (Homo sapiens, UniProt Q13535) for COCCOC(=O)N1CC=C(c2cnc(N)c(-c3nc4ccccc4[nH]3)n2)CC1 , please.
# output 6.00 to 7.00

# input Now this one: CN(C)CC(=O)N1CC=C(c2cnc(N)c(-c3nnc(-c4ccccc4)o3)n2)CC1
# output 6.00 to 7.00

# input How about Cc1ccc2nc(-c3nc(N4CCN(c5ccccc5)CC4)cnc3N)[nH]c2c1 ?
# output 6.00 to 7.00

# input Subsequent entry: Nc1ncc(N2CCN(C(=O)Cc3ccccc3)CC2)nc1C(=O)Nc1ccccn1
# output 5.00 to 6.00

# input Try this compound too: Nc1ncc(C2=CCN(C(=O)COc3ccccc3)CC2)nc1-c1nc2ccccc2[nH]1
# output 6.00 to 7.00

# input Further, for Nc1ncc(C2=CCN(S(=O)(=O)c3ccsc3)CC2)nc1-c1nnc(-c2ccccc2)o1 ?
# output > 7.00

# input Also, Cc1ccc2nc(-c3nc(N4CCN(c5ncccn5)CC4)cnc3N)[nH]c2c1 please.
# output 5.00 to 6.00

# input // query: CCC(=O)N1CCN(c2cnc(N)c(-c3nnc(-c4ccc(CNC)cc4)o3)n2)CC1
# output > 7.00

* * *

tested_on: full-length ATR (Homo sapiens, UniProt Q13535)
Construct: in the presence of 5 nM full-length ATR
assay_info: ATR Inhibition Assay (radioactive-phosphate incorporation)
assay_conditions: Ki(app); 5 nM full-length ATR, 10 μM ATP, 800 μM target peptide, 25° C.
Please provide measured Ki for the entries that follow.

# input Entry Nc1ncc(C2=CCN(C(=O)c3c(F)cccc3F)CC2)nc1-c1nnc(-c2ccccc2)o1 [Compound I-133] has what Ki?
# output < 100 nM

# input Okay, and CCC(=O)N1CCC2(CCN(c3cnc(N)c(-c4nnc(-c5ccc(CNC)cc5)o4)n3)C2)C1 (stereo not shown) [Compound I-342] ?
# output 100 to 1000 nM

# input Record: Nc1ncc(C2=CCN(C(=O)N3CCCC3)CC2)nc1-c1nnc(-c2ccccc2)o1 [Compound I-226]
# output < 100 nM

# input Same for CNCc1ccc(-c2nnc(-c3nc(N4CCC(N5CCCC5=O)CC4)cnc3N)o2)cc1 [Compound I-364]
# output 100 to 1000 nM

# input Thanks! And CC(C)(C)C(=O)N1CC=C(c2cnc(N)c(-c3nc4ccccc4[nH]3)n2)CC1 [Compound I-214] ?
# output 100 to 1000 nM

# input Next up: Cc1ccc2nc(-c3nc(N4CCC(C(=O)c5ccccc5)CC4)cnc3N)[nH]c2c1 [Compound I-63]
# output 100 to 1000 nM

# input Would you mind doing CCS(=O)(=O)N1CCN(c2cnc(N)c(-c3nnc(C4CCCCC4)o3)n2)CC1 [Compound I-72] as well?
# output 1000 to 10000 nM

# input Then this compound: CNCc1ccc(-c2nnc(-c3nc(N4CCC5(CCNC5=O)CC4)cnc3N)o2)cc1 [Compound I-360]
# output 100 to 1000 nM

# input Request: CCC(=O)NC1[C@H]2CN(c3cnc(N)c(-c4nnc(-c5ccc(CNC)cc5)o4)n3)C[C@@H]12 (stereo partly shown) [Compound I-358]
# output 100 to 1000 nM

# input Please give the result for CCC(=O)N1CC=C(c2cnc(N)c(-c3nnc(-c4ccc(CNC)cc4)o3)n2)CC1 [Compound I-335] too.
# output 100 to 1000 nM

# input Now consider COCCOCC(=O)N1CCN(c2cnc(N)c(-c3nnc(-c4ccccc4)o3)n2)CC1 [Compound I-178] and answer again.
# output 100 to 1000 nM

# input Consider next the compound Nc1ncc(N2CCN(S(=O)(=O)c3ccccc3)CC2)nc1-c1nnc(-c2ccccc2)o1 [Compound I-196] in the same way.
# output 100 to 1000 nM

# input Same read-out for CCC(=O)N1CCN(c2cnc(N)c(-c3nnc(-c4ccc(CNC)cc4)o3)n2)C[C@H]1C [Compound I-315] ?
# output 100 to 1000 nM

# input And the next one, CN(C)S(=O)(=O)N[C@H]1CCN(c2cnc(N)c(-c3nc4ccccc4[nH]3)n2)C1 [Compound I-85] ?
# output 1000 to 10000 nM

# input Now consider CCS(=O)(=O)N1CC=C(c2cnc(N)c(-c3nnc(-c4ccc(CNC)cc4)o3)n2)CC1 [Compound I-339] .
# output 100 to 1000 nM

# input What would you report for CNCc1ccc(-c2nnc(-c3nc(N4Cc5ccccc5C4)cnc3N)o2)cc1 [Compound I-321] ?
# output 1000 to 10000 nM

* * *

tested_on: intracellular ATR (Homo sapiens)
Construct: endogenous in cells
Sequence (Q8WXE1 whole entry partner, one chain of several): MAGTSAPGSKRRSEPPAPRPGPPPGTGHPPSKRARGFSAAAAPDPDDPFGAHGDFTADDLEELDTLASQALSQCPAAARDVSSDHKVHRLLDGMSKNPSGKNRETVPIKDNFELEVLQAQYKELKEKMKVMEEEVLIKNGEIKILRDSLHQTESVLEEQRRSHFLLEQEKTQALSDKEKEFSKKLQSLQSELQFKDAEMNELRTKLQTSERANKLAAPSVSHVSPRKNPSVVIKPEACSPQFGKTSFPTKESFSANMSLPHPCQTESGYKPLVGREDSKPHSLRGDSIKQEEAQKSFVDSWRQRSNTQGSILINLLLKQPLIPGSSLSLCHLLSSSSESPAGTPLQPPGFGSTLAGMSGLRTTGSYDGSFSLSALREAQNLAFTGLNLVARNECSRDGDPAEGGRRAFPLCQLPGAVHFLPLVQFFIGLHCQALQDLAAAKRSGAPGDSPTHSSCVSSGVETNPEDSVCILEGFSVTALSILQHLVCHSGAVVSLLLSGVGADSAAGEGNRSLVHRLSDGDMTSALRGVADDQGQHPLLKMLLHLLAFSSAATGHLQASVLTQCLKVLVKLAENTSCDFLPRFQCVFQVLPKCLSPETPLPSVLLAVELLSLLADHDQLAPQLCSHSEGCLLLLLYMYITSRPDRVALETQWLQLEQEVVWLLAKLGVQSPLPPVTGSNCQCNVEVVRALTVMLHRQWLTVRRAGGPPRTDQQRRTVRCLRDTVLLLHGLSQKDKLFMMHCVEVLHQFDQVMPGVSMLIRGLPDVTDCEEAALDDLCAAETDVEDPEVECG
assay_info: Cellular ATR Inhibition Assay (H2AX phosphorylation, immunofluorescence microscopy)
assay_conditions: HT29 cells, 2 mM hydroxyurea, percentage of phosphorylated H2AX Ser139-positive nuclei
From the text: Compounds were screened for their ability to inhibit intracellular ATR using an immunofluorescence microscopy assay to detect phosphorylation of the ATR substrate histone H2AX in hydroxyurea treated cells. […] Cells were imaged for Alexa Fluor 488 and Hoechst intensity using the BD Pathway 855 Bioimager and Attovision software (BD Biosciences, Version 1.6/855) to quantify phosphorylated H2AX Ser139 and DNA staining, respectively. […]
measured_metric: IC50

# input Could you share what IC50 was measured for CCS(=O)(=O)N1CCN(c2cnc(N)c(-c3nc4ccccc4[nH]3)n2)CC1 , tested on intracellular ATR (Homo sapiens)?
# output 10 to 30 µM

# input Please answer likewise for Cc1ccc2nc(-c3nc(-n4ccc(=O)cc4)cnc3N)[nH]c2c1
# output 1 to 5 µM

# input Another compound to check: CCS(=O)(=O)N1CC=C(c2cnc(N)c(-c3nnc(-c4ccccc4)o3)n2)CC1
# output 5 to 10 µM

# input Next compound up: CCS(=O)(=O)N1CC=C(c2cnc(N)c(-c3nc4cccnc4[nH]3)n2)CC1
# output < 1 µM

# input Next entry: CN(C)S(=O)(=O)N1CC=C(c2cnc(N)c(-c3nc4cccnc4[nH]3)n2)CC1
# output 1 to 5 µM
